# System: Plasmodium falciparum
# experiment.summary: GSK_TCMDC: Inhibition of Plasmodium falciparum Dd2 in whole red blood cells, using parasite LDH activity as an index of growth. Test compounds present at 2uM
# Type: functional
Could you please report measured Inhibition for the items listed next?
Could you give me the number in %? Just the number is fine.

Give Inhibition for O=C(NCCN1CCOCC1)c1ccc(N2CCC(Oc3ccc4ccccc4c3)CC2)nc1
30

Give Inhibition for Cc1ccc2nc3ccccc3c(NCCN3CCN(C)CC3)c2c1.Cl
6

Give Inhibition for O=C(Nc1cccc(-c2ccc(-c3nc4ccccc4[nH]3)cc2)c1)Nc1ccc2c(c1)OCO2
8

Give Inhibition for Cl.NC1=NC(c2ccccc2)N(c2ccc(Cl)c(Cl)c2)C(N)=N1 (stereo unspecified)
0

Give Inhibition for Oc1c(C(Nc2ccccn2)c2ccco2)cc(Cl)c2cccnc12 (stereo unspecified)
65

Give Inhibition for CN1CCN(CCCNCc2cccc(-c3ccc(CNCCc4ccccc4)cc3)c2)CC1.O=C(O)C(F)(F)F
20

Give Inhibition for COc1cccc(NC(=O)[C@H](C)n2c(=O)[nH]c3ccccc3c2=O)c1
92

Give Inhibition for CS(=O)(=O)c1ccc(CCNCc2ccc(-c3ccc(CNC4CCN(Cc5ccccc5)CC4)cc3)nc2)cc1.O=C(O)C(F)(F)F
100

Give Inhibition for Cc1ccc(NC(C)C(=O)Nc2ccc(C#N)cc2)cc1S(=O)(=O)N1CCCCC1 (stereo unspecified)
92

Give Inhibition for CCCCCCOc1ccc(N2C(N)=NC(N)=NC2(C)C)cc1.Cl
0

Give Inhibition for Cc1ccccc1N1CCN(c2ccc(C(=O)NC3CC3)cn2)CC1.O=C(O)C(F)(F)F
96

----------
# Test system: Plasmodium falciparum
# experiment.summary: GSK_TCMDC: Inhibition of Plasmodium falciparum Dd2 in whole red blood cells, using parasite LDH activity as an index of growth. Test compounds present at 2uM
# Assay type: functional
property: Inhibition (%)
Could you give me the number in %? Just the number is fine.

Give reported Inhibition for CC(C)(C)c1ccc(CN2CCC(NC(=O)c3ccc(-c4cccc(F)c4)s3)CC2)cc1.O=C(O)C(F)(F)F (Plasmodium falciparum)
24

Give reported Inhibition for CC(C)c1ccc(NC(=O)c2ccc(C(=O)NC3CCN(Cc4ccccc4)CC3)cc2)cc1.O=C(O)C(F)(F)F (Plasmodium falciparum)
7

Give reported Inhibition for Br.CC(CCON1C(N)=NC(N)=NC1(C)C)c1ccc(Cl)c(Cl)c1 (stereo not given) (Plasmodium falciparum)
97

Give reported Inhibition for O=C(NOCc1ccccc1)c1cc(Cl)ccc1O (Plasmodium falciparum)
0

Give reported Inhibition for CCC(C(C)C)n1ccc2c3c(N)nc(N)nc3ccc21 (stereo not given) (Plasmodium falciparum)
95

----------
# Test system: Plasmodium falciparum
# experiment.summary: GSK_TCMDC: Inhibition of Plasmodium falciparum Dd2 in whole red blood cells, using parasite LDH activity as an index of growth. Test compounds present at 2uM
# Type: functional
Is Inhibition at least 70%? Then fulfilled. If not, not fulfilled.

Does Inhibition meet or surpass 70% for CCCCCCN1CCN(Cc2cccc(NC(=O)c3ccc(Cl)c(Cl)c3)c2)CC1.O=C(O)C(F)(F)F ?
not fulfilled

Does Inhibition meet or surpass 70% for O=C(Cc1ccc(-n2cnnn2)cc1)N(Cc1cncn1Cc1cccc(C(F)(F)F)c1)CC1CC1 ?
not fulfilled

Does Inhibition meet or surpass 70% for Cc1cnc(NC(=O)c2cn(-c3ccccc3)nc2-c2cccs2)s1 ?
not fulfilled

Does Inhibition meet or surpass 70% for Cc1ccc2c(=O)n(C)c(=O)n(C)c2n1 ?
not fulfilled

Does Inhibition meet or surpass 70% for COc1cc2nc(-c3ccccc3)nc(N3CCN(C(=O)c4ccco4)CC3)c2cc1OC ?
fulfilled

Does Inhibition meet or surpass 70% for CCNc1cc(C(=O)N[C@@H](Cc2ccccc2)[C@H](O)CN[C@@H]2CCc3ccccc32)cc(N2CCCC2=O)c1 ?
fulfilled

Does Inhibition meet or surpass 70% for Cc1ccccc1C1CCN(C2CCC(NC(=O)/C=C/c3cc(F)cc(F)c3)CC2)CC1 (stereo not given) ?
not fulfilled

Does Inhibition meet or surpass 70% for O=C(Nc1ccc(-c2cccc(-c3nc4ccccc4[nH]3)c2)cc1)Nc1ccsc1 ?
fulfilled

Does Inhibition meet or surpass 70% for Cc1nc2nc(N)nc(N)c2c(C)c1Cc1ccccc1.Cl ?
not fulfilled

Does Inhibition meet or surpass 70% for Cc1cc(-c2nc3ccc(C(=O)NCc4ccccc4)cc3n2C2CCN(C(=O)c3ccc(-c4ccccc4)cc3)CC2)ccn1 ?
fulfilled

Does Inhibition meet or surpass 70% for Cc1ccc(N2CCN(C(=O)c3cccc(-c4cncc5nc(-c6ccco6)n(C)c45)c3)CC2)nc1 ?
fulfilled

Does Inhibition meet or surpass 70% for O=C(NCCCCCN1CCC(c2c[nH]c3ccccc23)CC1)Nc1ccc(Cl)c(Cl)c1 ?
not fulfilled

Does Inhibition meet or surpass 70% for O=C(Nc1ccc(Cl)cc1C(=O)Nc1ccncc1)c1ccc(Cl)cc1Cl ?
fulfilled

Does Inhibition meet or surpass 70% for COc1ccc(-c2nc(-c3ccc([N+](=O)[O-])cc3)no2)cc1OC ?
not fulfilled

Does Inhibition meet or surpass 70% for Cc1ccc(NC(=O)NC2CCN(c3ccnc4ccccc34)CC2)cc1.O=C(O)C(F)(F)F ?
not fulfilled

Does Inhibition meet or surpass 70% for O=C(NC1CC1)c1ccc(N2CCOc3ccc(Cl)cc32)s1 ?
fulfilled

Does Inhibition meet or surpass 70% for CCN(c1ccccc1)S(=O)(=O)c1ccc(NC(=O)c2cc(-c3cc(C)ccc3O)n[nH]2)cc1 ?
not fulfilled

Does Inhibition meet or surpass 70% for Cc1cccc(C(O)CNc2ccnc(Nc3cccc(-c4csc(C)n4)c3)n2)c1 (stereo not given) ?
fulfilled

Does Inhibition meet or surpass 70% for COc1c(C2CCN(CCCCNC(=O)c3ccc(-c4ccc(Cl)cc4)c(O)c3)CC2)ccc2c1CCCC2 ?
fulfilled

Does Inhibition meet or surpass 70% for CCOc1cc(C)ccc1N1CCN(CCN2CCC(NC(=O)c3ccc(-c4ccc(C#N)cc4)cc3)CC2)CC1 ?
not fulfilled

Does Inhibition meet or surpass 70% for Nc1c(-c2ccc(C(=O)NCCNCc3ccccc3)cc2)cnn1-c1ccc(C(F)(F)F)cc1.O=C(O)C(F)(F)F ?
not fulfilled

Does Inhibition meet or surpass 70% for CCCNc1ccc2nccc(CCN3CCC(NCc4ccc5c(n4)NC(=O)CS5)CC3)c2n1 ?
not fulfilled

Does Inhibition meet or surpass 70% for COCCNCc1nc(-c2ccc3c(Nc4ccc(F)c(O)c4)ccnc3c2)cs1 ?
fulfilled
